Test system: Penicillium
protocol: Antifungal activity against Penicillium after 72 to 96 hrs by broth dilution method
Format: functional
Exercise: state measured MIC for each of the compounds provided.
Reply with just the number (in µg/mL).

Data point: CCC1/C(=N/O)CC(c2ccccc2)N(C)C1c1ccccc1 (stereo not given) ; MIC = 200

The compound listed as CCOC(=O)O/N=C1\CC(c2ccccc2)N(C)C(c2ccccc2)C1CC (stereo not given) shows MIC equal to 200

Notebook: COC(=O)O/N=C1\CC(c2ccccc2)N(C)C(c2ccccc2)C1C (stereo not given) , MIC read as 200

Recorded result, COC(=O)O/N=C1\CC(c2ccccc2)N(C)C(c2ccccc2)C1C(C)C (stereo not given) , MIC: 200

For CC(Cl)OC(=O)O/N=C1\CC(c2ccccc2)N(C)C(c2ccccc2)C1C (stereo not given) the compound record lists MIC as 25

compound CC1/C(=N/O)CC(c2ccccc2)N(C)C1c1ccccc1 (stereo not given) , MIC observed: 200

// CCC1/C(=N/OC(=O)OC(C)Cl)CC(c2ccccc2)N(C)C1c1ccccc1 (stereo not given) : MIC value = 25

Please fill in: MIC reported for CCC1/C(=N/OC(=O)Oc2ccccc2)CC(c2ccccc2)N(C)C1c1ccccc1 (stereo not given) = 25

Looking up C[C@@H]1[C@H](O)[C@@H](C)/C=C/C=C/C=C/C=C/C=C/C=C/C=C/[C@H](O[C@@H]2O[C@H](C)[C@@H](O)[C@H](N)[C@@H]2O)C[C@@H]2O[C@](O)(C[C@@H](O)C[C@@H](O)[C@H](O)CC[C@@H](O)C[C@@H](O)CC(=O)O[C@H]1C)C[C@H](O)[C@H]2C(=O)O , I found its MIC recorded as 25

CCC1/C(=N/OC(=O)OC)CC(c2ccccc2)N(C)C1c1ccccc1 (stereo not given) yielded MIC of 200
